assay_method_text: qHTS Counterscreen for compound interference against the NCATS DSHEA and TCM libraries (AID 1919978);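 note: compounds preincubated with 1 µM D-luciferin or buffer before detection reagent; % of control where 0% means no effect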
study_conditions: firefly luciferase detection reagent interference, luminescence
Here the recorded max response is given for each entry.
value_type: max response (%)

>>> df
                                   molecule  measured
0                             Oc1cccc(O)c1O     -3.78
1  CC(C)=CCC/C(C)=C/C=C/C(C)=C/C=C/C(C)=C/C=C/C=C(C)/C=C/C=C(C)/C=C/C=C(\C)CCC=C(C)C     0.511
2          CCCCC/C=C\C/C=C\C/C=C\CCCCC(=O)O      -1.8
3  CC/C=C\C/C=C\C/C=C\C/C=C\C/C=C\CCCC(=O)O     0.593
4           Cc1ncc(C[n+]2csc(CCO)c2C)c(N)n1    -0.256
5  CC1=CCC2CC1C2(C)C (configuration not stated)      3.27
6            Oc1ccc(/C=C/c2cc(O)cc(O)c2)cc1     -1.38

====

Here the recorded max response is given for each entry.
Tested on: KB-3-1
assay_method_text: Cytotoxic Profiling of Annotated Libraries Using Quantitative High-Throughput Screening (AID 1296008); note: % is set by controls: 0 for no effect and ±100 for the full control effect; nearly all actives have a fitted effect of over 60% in size
study_conditions: Five cell lines viability, CellTiter-Glo ATP luminescence, 48-72 h; hits give low values
Experimental: Cell-based phenotypic screening is a commonly used approach to discover biological pathways, novel drug targets, chemical probes and high-quality hit-to-lead molecules. […] A pintool (Kalypsys) was used to transfer 23 nL of compound solution to the 1536-well assay plates. […] Plates were left at room temperature for 10 min before imaging the ATP-coupled luminescence using a ViewLux microplate imager (PerkinElmer, Waltham, MA).
Records with an inconclusive call do not appear.
value_type: max response (%)

>>> print(df.to_string())
                                    compound  study_system  readout_unit  measured
 0         CCOc1ccc(NC(=S)Nc2ccc(OCC)cc2)cc1        KB-3-1             %      43.1
 1  CC1CCC(NC(=O)N(CCCl)N=O)CC1 (stereo not drawn)        KB-3-1             %      8.06
 2  c1ccc2c(c1)OCC(CN1CCCCC1)O2 (stereo not drawn)        KB-3-1             %       -16
 3  CC(C)[C@@H]1CC[C@@H](C)C[C@H]1OC(=O)c1ccccc1O        KB-3-1             %     -4.38
 4  CCOc1cc(-c2nccc3cc(OC)c(OC)cc23)cc(OCC)c1OCC        KB-3-1             %     -26.3
 5  O=C1c2c(O)cccc2[C@H]([C@@H]2O[C@H](CO)[C@@H](O)[C@H](O)[C@H]2O)c2cc(CO)cc(O)c21        KB-3-1             %      8.29
 6  CCCC(=O)Nc1c(I)cc(I)c(CC(CC)C(=O)O)c1I (stereo not drawn)        KB-3-1             %     -4.08
 7  CCCCCCCCCCCCCCCCCCCCCC(=O)Nc1ccn([C@@H]2O[C@H](CO)[C@@H](O)[C@@H]2O)c(=O)n1        KB-3-1             %      3.81
 8                               Cc1ncc[nH]1        KB-3-1             %      3.25
 9  CC(=O)[C@H]1CC[C@H]2[C@@H]3C=CC4=CC(=O)CC[C@@]4(C)[C@H]3CC[C@]12C        KB-3-1             %     -2.63
10  CC/C=C\C/C=C\C/C=C\C/C=C\C/C=C\CCCC(=O)O        KB-3-1             %     -1.96
11  COc1cc(S(C)=O)ccc1-c1nc2ncccc2[nH]1 (stereo not drawn)        KB-3-1             %      26.5
12  CN1CCC(OC(=O)C(Oc2ccc(Cl)cc2)Oc2ccc(Cl)cc2)CC1        KB-3-1             %     -2.63

====

System: CP262
assay_method_text: qHTS profiling for inhibitors of Plasmodium falciparum proliferation (AID 504749); note: nearly all actives have a fitted effect of over 60% in size
study_conditions: P. falciparum in erythrocytes, SYBR Green DNA, 72 h; series mostly up to 28.7 µM
Results filed as inconclusive are left out. Calls of active or inactive are those of the source. Calls follow the shape of the dose curve; as a rule, active = well fitted inhibition curve with a large enough effect; inconclusive = small, poorly fitted or top-dose-only effect; inactive = flat fitted curve, though single readings scatter.
Possible outcomes: active, inactive

>>> df
                                   compound  category_label
0  CN=C1C=CC(=C(c2ccc(N(C)C)cc2)c2ccc(N(C)C)cc2)C=C1          active
1               Cc1cccc(Nc2ncccc2C(=O)O)c1C        inactive
2               CC(C)c1ncc([N+](=O)[O-])n1C        inactive
3  O=C(OC1C[C@@H]2CC3C[C@H](C1)N2CC3=O)c1c[nH]c2ccccc12 (stereo partly specified)        inactive
4                 Nc1ccc(N=Nc2ccccc2)c(N)n1        inactive
5  COc1ccc2c(c1)OC(C)(C)C(c1ccccc1)C2c1ccc(OCCN2CCCC2)cc1 (stereo unspecified)          active

====

assay_method_text: Drug repurposing screens with cells derived from glioblastoma tumor samples (AID 1345199); note: % is set by controls: 0 for no effect and ±100 for the full control effect; nearly all actives have a fitted effect of over 40% in size
study_conditions: GBM patient neurospheres viability, ATP luminescence, 48 h; at 45.9 µM (top of the series); tumour line D
Records with an inconclusive call do not appear.
value_type: activity, negative = cell killing (%)

                                   compound  measured
0                                    OB(O)O     -13.8
1  CCC(=O)OC(OP(=O)(CCCCc1ccccc1)CC(=O)N1C[C@H](C2CCCCC2)C[C@H]1C(=O)O)C(C)C (some centres undefined)     -19.4
2              Cc1c(Cl)cccc1Nc1ncccc1C(=O)O       -17
3                                OCCOCCOCCO     -3.68

====

assay_method_text: Cell Viability - LYMP2-005 (AID 967);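 note: cells exposed to compound for 24 h at 37 °C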
study_conditions: LYMP2-005 lymphoblastoid cell viability; series mostly up to 92.2 µM
Records with an inconclusive call do not appear. Activity calls are given as the source filed them. Calls come from the whole dose curve; as a rule, active = well fitted cell-killing curve with a large enough effect; inconclusive = small, poorly fitted or top-dose-only effect, or effect the other way; inactive = no such curve, though single readings can be large or run the other way.
Possible outcomes: active, inactive

compound	category_label
C[C@H](CCC(=O)O)[C@H]1CC[C@H]2[C@@H]3[C@H](O)C[C@@H]4C[C@H](O)CC[C@]4(C)[C@H]3C[C@H](O)[C@]12C	inactive
O=c1n(CC2CO2)c(=O)n(CC2CO2)c(=O)n1CC1CO1 (stereo unspecified)	active
Nc1nccs1	inactive
CC[C@H]1OC(=O)[C@H](C)[C@@H](O[C@H]2C[C@@](C)(OC)[C@@H](O)[C@H](C)O2)[C@H](C)[C@@H](O[C@@H]2O[C@H](C)C[C@H](N(C)C)[C@H]2O)[C@](C)(O)C[C@@H](C)CN(C)[C@H](C)[C@@H](O)[C@]1(C)O	inactive
CO/N=C(/C(=O)N[C@@H]1C(=O)N2C(C(=O)O)=C(COC(N)=O)CS[C@H]12)c1ccco1	inactive
CO	inactive
COC(=O)c1ccccc1O	inactive
Cc1ccc(S(=O)(=O)O)cc1C	inactive
OCl	inactive
OC[C@H]1O[C@@H]2O[C@H]3[C@H](O)[C@@H](O)[C@@H](O[C@H]4[C@H](O)[C@@H](O)[C@@H](O[C@H]5[C@H](O)[C@@H](O)[C@@H](O[C@H]6[C@H](O)[C@@H](O)[C@@H](O[C@H]7[C@H](O)[C@@H](O)[C@@H](O[C@H]1[C@H](O)[C@H]2O)O[C@@H]7CO)O[C@@H]6CO)O[C@@H]5CO)O[C@@H]4CO)O[C@@H]3CO	inactive
CCCCC	inactive

====

Tested on: HB3
assay_method_text: qHTS profiling for inhibitors of Plasmodium falciparum proliferation (AID 504749); note: nearly all actives have a fitted effect of over 60% in size
study_conditions: P. falciparum in erythrocytes, SYBR Green DNA, 72 h; series mostly up to 28.7 µM
Inconclusive results are not listed. Calls of active or inactive are those of the source. Calls follow the shape of the dose curve; as a rule, active = well fitted inhibition curve with a large enough effect; inconclusive = small, poorly fitted or top-dose-only effect; inactive = flat fitted curve, though single readings scatter.
Possible outcomes: YES = active, NO = inactive

molecule	category_label
CN(CCO)CC(O)Cn1cnc2c1c(=O)n(C)c(=O)n2C (stereo unspecified) (tested in a mixture with another compound)	NO
O=C(O)c1cc(N=Nc2ccc(O)c(C(=O)O)c2)ccc1O	NO
CC(=O)N=c1sc(S(N)(=O)=O)nn1C	NO
O=C(O)C1=C(CSc2nnnn2CS(=O)(=O)O)CS[C@@H]2[C@H](NC(=O)[C@H](O)c3ccccc3)C(=O)N12	NO
C=C(C)C1CC=C(C)CC1 (stereo unspecified)	NO
NCC[C@H](O)C(=O)N[C@@H]1C[C@H](N)[C@@H](O[C@H]2O[C@H](CN)CC[C@H]2N)[C@H](O)[C@H]1O[C@H]1O[C@H](CO)[C@@H](O)[C@H](N)[C@H]1O	NO
CCCCCCCCCCCC(=O)N(CCO)CCO	NO
CCN(CC)C(=S)S	NO
CC1C(=O)CC2C3(C)CCC2(C(C)C(=O)O)C(=O)C13 (stereo unspecified)	NO
O=c1n(CC2CO2)c(=O)n(CC2CO2)c(=O)n1CC1CO1 (stereo unspecified)	NO
O=C(O)CCC/C=C\C[C@@H]1[C@@H](/C=C/[C@@H](O)COc2cccc(Cl)c2)[C@H](O)C[C@@H]1O	NO
N[C@H](CC(=O)O)C(=O)O	NO
[O]=[Bi][O][Bi]=[O]	NO
COc1cc(S(C)=O)ccc1-c1nc2ncccc2[nH]1 (stereo unspecified)	NO
Cc1cc(-c2ccc(N=Nc3c(S(=O)(=O)O)cc4cc(S(=O)(=O)O)cc(N)c4c3O)c(C)c2)ccc1N=Nc1c(S(=O)(=O)O)cc2cc(S(=O)(=O)O)cc(N)c2c1O	NO
CC(=O)Oc1cc(C(F)(F)F)ccc1C(=O)O	NO
NC(N)=O	NO
CC(C)NCC(O)COc1ccccc1-n1cccc1 (stereo unspecified)	NO
OCC(O)CO	NO
C[C@H](N)C(=O)N[C@@H](C)P(=O)(O)O	NO
O=C(OC1C[C@@H]2CC3C[C@H](C1)N2CC3=O)c1c[nH]c2ccccc12 (stereo partly specified)	NO
c1ccc2c(c1)OCC(CN1CCCCC1)O2 (stereo unspecified)	NO
CNC(=O)c1c(I)c(C(=O)NCC(=O)Nc2c(I)c(C(=O)O)c(I)c(C(=O)NCCO)c2I)c(I)c(N(C)C(C)=O)c1I	NO
CCCOC(=O)c1ccccc1O	NO
CC(=O)Oc1cccc2c1C(=O)c1c(OC(C)=O)cc(C(=O)O)cc1C2=O	NO
Cc1cc(C)c(NC(=O)C[C@H](CC(=O)O)c2cccc3ccccc23)c(C(=O)N2CCC3(CCCC3)CC2)c1	NO
CCCCO	NO
CC(C)C1=CC2=CC[C@@H]3[C@](C)(CCC[C@@]3(C)C(=O)O)[C@H]2CC1	NO
O=C1NCCN1c1ncc([N+](=O)[O-])s1	NO
CC(CCc1ccc(O)cc1)NCC(O)c1ccc(O)cc1 (stereo unspecified)	NO
CCN(CC)CCC(=O)N1c2ccccc2Sc2ccc(C(F)(F)F)cc21	NO
CCOC(=S)SSC(=S)OCC	NO
CN(C)CCOc1ccc(/C(=C(/CCCl)c2ccccc2)c2ccccc2)cc1	NO
OCCCNc1ccccc1	NO
CN(C)C=Nc1c(I)cc(I)c(CCC(=O)O)c1I	NO
CS(=O)(=O)OCC(O)C(O)COS(C)(=O)=O (stereo unspecified)	NO
O=C(O)[C@H]1CN(C/C=C/P(=O)(O)O)CCN1	NO
CN=C1C=CC(=C(c2ccc(N(C)C)cc2)c2ccc(N(C)C)cc2)C=C1	YES
FC(F)(F)COCC(F)(F)F	NO
CCCCCCCCCCCCCC(=O)OCC(COP(=O)([O-])OCC[N+](C)(C)C)OC(=O)CCCCCCCCCCCCC (stereo unspecified)	NO
OC[C@H]1O[C@@](CO)(O[C@H]2O[C@H](CO)[C@@H](O)[C@H](O)[C@H]2O)[C@@H](O)[C@@H]1O	NO
